target: mPTPB (Mycobacterium tuberculosis, UniProt I6WXK4)
Sequence (I6WXK4 whole entry, looked up): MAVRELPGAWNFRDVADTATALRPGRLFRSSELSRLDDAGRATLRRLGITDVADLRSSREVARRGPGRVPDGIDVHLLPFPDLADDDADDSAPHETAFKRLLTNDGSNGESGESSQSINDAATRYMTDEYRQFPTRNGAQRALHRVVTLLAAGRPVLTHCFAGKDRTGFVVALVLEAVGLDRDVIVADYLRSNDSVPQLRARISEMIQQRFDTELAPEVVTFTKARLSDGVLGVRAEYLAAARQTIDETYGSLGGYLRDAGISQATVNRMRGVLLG
pIC50: −log10 of the molar value.

{"columns": ["SMILES RECORD", "pIC50"],
 "data": [
  ["C#CCOc1c(C(=O)O)cc2cc(Cl)cc(OCC#C)c2c1Cl", 4.12]
]}
